Numbers sourced from ChEMBL document CHEMBL1157852.

test system: HL-60; test: Cytotoxicity against human HL60 cells after 72 hrs by MTT assay; format: functional, cell-based; details: HL-60, 72 h
pIC50: −log10 of the molar value.
Label T for high-side pIC50 (at or above 6) and F for low-side pIC50 (below it).

1. COc1cccc2c1C(=O)c1c(O)c3c(c(O)c1C2=O)C[C@@](O)(/C(CO)=N/NC(=O)CCCCCCCCCCC(=O)O[C@H]1C[C@H]2CC[C@]1(C)C2(C)C)C[C@@H]3O[C@H]1C[C@H](N)[C@H](O)[C@H](C)O1.Cl: T
2. CCCCC/C=C\C/C=C\CCCCCCCC(=O)N/N=C(\CO)[C@]1(O)Cc2c(O)c3c(c(O)c2[C@@H](O[C@H]2C[C@H](N)[C@H](O)[C@H](C)O2)C1)C(=O)c1c(OC)cccc1C3=O.Cl: F
3. COc1cccc2c1C(=O)c1c(O)c3c(c(O)c1C2=O)C[C@@](O)(/C(CO)=N/NC(=O)CCCCC(=O)O[C@@H]1C[C@H](C)CC[C@H]1C(C)C)C[C@@H]3O[C@H]1C[C@H](N)[C@H](O)[C@H](C)O1.Cl: T

Input line: Test whether the compound "COc1cccc2c1C(=O)c1c(O)c3c(c(O)c1C2=O)C[C@@](O)(/C(CO)=N/NC(=O)CCCCCCCCCCC(=O)O[C@@H]1C[C@H](C)CC[C@H]1C(C)C)C[C@@H]3O[C@H]1C[C@H](N)[C@H](O)[C@H](C)O1.Cl" records pIC50 of 6 or higher.
Output line: T

###

tested on: 518A2; assay: Induction of apoptosis in human 518A2 cells assessed as appearance of intact mitochondria in cytosol at 5 uM after 6 hrs using JC1 dye relative to control; type: functional
Some molecules, each annotated with its measured Activity.
The response must be a number in % with no trailing unit.

Below, each entry is followed by its recorded Activity result.
1) COc1cccc2c1C(=O)c1c(O)c3c(c(O)c1C2=O)C[C@@](O)(/C(CO)=N/NC(=O)CCCCCCCC(=O)O[C@@H]1C[C@H](C)CC[C@H]1C(C)C)C[C@@H]3O[C@H]1C[C@H](N)[C@H](O)[C@H](C)O1.Cl: 83
2) COc1cccc2c1C(=O)c1c(O)c3c(c(O)c1C2=O)C[C@@](O)(/C(CO)=N/NC(=O)CC(=O)O[C@@H]1C[C@H](C)CC[C@H]1C(C)C)C[C@@H]3O[C@H]1C[C@H](N)[C@H](O)[C@H](C)O1.Cl: 93
3) COc1cccc2c1C(=O)c1c(O)c3c(c(O)c1C2=O)C[C@@](O)(/C(CO)=N/NC(=O)CCCCCCCCCCC(=O)O[C@H]1C[C@H]2CC[C@]1(C)C2(C)C)C[C@@H]3O[C@H]1C[C@H](N)[C@H](O)[C@H](C)O1.Cl: 66

For the next question, use this molecule.
Input line: Quote Activity reported for CCCCCCCC/C=C\CCCCCCCC(=O)N/N=C(\CO)[C@]1(O)Cc2c(O)c3c(c(O)c2[C@@H](O[C@H]2C[C@H](N)[C@H](O)[C@H](C)O2)C1)C(=O)c1c(OC)cccc1C3=O.Cl [DOXORUBICIN OLEYLHYDRAZONE HYDROCHLORIDE] please.
Output line: 96

###

experiment: Cytotoxicity against human vinblastine-resistant KBV1 cells after 48 hrs by MTT assay; assay type: functional, cell-based; conditions: KB-V1, 48 h
READOUT: IC50 (µM)
Your answer should be a plain number; it is taken to be in µM.

Input line: Provide only the value of recorded IC50 for "CCCCC/C=C\C/C=C\CCCCCCCC(=O)N/N=C(\CO)[C@]1(O)Cc2c(O)c3c(c(O)c2[C@@H](O[C@H]2C[C@H](N)[C@H](O)[C@H](C)O2)C1)C(=O)c1c(OC)cccc1C3=O.Cl"
Output line: 18.7

Input line: Query IC50 for "COc1cccc2c1C(=O)c1c(O)c3c(c(O)c1C2=O)C[C@@](O)(/C(CO)=N/NC(=O)CCCCCCCCCCC(=O)O[C@H]1C[C@H]2CC[C@]1(C)C2(C)C)C[C@@H]3O[C@H]1C[C@H](N)[C@H](O)[C@H](C)O1.Cl"
Output line: 20.7
